- System Under Test: human N-type Ca channel (Homo sapiens, UniProt Q00975)
- Sequence (Q00975 whole entry): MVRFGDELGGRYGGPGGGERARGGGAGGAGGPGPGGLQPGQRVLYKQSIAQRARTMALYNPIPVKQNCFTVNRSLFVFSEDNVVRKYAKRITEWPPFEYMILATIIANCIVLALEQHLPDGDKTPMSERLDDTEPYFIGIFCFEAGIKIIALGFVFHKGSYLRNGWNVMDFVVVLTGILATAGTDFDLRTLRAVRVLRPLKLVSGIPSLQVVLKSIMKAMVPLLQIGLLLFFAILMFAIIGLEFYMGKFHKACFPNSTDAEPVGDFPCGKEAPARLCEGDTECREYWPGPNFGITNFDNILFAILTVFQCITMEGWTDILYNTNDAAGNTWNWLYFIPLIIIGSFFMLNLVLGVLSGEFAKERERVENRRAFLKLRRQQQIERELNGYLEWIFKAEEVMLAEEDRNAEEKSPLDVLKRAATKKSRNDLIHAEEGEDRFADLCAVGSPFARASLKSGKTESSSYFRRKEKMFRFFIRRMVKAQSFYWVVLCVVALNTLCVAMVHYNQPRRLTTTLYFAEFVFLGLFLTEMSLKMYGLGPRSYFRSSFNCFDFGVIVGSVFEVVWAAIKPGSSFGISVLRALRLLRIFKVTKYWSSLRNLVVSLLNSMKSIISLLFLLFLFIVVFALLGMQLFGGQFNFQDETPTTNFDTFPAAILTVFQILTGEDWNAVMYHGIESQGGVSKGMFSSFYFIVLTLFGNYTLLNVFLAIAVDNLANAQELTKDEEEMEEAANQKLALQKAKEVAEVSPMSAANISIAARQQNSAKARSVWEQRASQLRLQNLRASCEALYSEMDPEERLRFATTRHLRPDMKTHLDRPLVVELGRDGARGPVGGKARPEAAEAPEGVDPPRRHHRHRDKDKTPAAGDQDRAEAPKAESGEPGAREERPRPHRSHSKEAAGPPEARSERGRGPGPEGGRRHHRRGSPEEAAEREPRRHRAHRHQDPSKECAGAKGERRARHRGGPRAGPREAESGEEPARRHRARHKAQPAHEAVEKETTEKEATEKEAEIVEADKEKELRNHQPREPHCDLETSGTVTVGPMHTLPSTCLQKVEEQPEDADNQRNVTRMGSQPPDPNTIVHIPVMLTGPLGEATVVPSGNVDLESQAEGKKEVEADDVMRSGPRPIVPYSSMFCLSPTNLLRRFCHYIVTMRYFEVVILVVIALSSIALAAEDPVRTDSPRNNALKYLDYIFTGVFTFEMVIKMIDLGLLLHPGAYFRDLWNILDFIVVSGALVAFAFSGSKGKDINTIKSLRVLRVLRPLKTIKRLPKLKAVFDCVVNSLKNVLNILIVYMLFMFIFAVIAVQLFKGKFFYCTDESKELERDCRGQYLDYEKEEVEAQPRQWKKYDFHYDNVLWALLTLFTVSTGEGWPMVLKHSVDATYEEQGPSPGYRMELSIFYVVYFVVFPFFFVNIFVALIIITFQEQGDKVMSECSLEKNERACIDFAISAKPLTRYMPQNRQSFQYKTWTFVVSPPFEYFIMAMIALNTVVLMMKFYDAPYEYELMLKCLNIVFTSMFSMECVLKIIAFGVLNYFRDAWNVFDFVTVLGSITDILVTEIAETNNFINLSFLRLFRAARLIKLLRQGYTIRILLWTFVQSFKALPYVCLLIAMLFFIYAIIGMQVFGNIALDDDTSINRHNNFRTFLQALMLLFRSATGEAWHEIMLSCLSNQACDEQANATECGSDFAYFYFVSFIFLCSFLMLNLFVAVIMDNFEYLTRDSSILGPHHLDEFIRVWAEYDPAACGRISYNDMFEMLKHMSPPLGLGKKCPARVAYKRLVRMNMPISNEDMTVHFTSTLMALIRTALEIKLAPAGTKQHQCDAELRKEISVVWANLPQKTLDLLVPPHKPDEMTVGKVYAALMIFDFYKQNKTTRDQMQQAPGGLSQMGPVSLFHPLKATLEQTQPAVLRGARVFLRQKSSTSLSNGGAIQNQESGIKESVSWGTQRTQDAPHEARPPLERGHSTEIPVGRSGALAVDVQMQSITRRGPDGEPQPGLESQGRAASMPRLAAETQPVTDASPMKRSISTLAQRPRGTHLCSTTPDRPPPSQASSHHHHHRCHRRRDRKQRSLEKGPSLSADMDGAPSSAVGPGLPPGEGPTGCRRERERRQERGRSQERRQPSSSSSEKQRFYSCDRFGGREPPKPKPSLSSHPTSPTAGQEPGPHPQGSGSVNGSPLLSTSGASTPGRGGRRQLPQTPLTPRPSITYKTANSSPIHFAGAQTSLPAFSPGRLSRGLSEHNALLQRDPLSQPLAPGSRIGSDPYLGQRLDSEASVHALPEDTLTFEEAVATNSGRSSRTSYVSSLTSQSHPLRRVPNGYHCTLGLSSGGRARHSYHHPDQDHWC
- Sequence (P54284 whole entry partner): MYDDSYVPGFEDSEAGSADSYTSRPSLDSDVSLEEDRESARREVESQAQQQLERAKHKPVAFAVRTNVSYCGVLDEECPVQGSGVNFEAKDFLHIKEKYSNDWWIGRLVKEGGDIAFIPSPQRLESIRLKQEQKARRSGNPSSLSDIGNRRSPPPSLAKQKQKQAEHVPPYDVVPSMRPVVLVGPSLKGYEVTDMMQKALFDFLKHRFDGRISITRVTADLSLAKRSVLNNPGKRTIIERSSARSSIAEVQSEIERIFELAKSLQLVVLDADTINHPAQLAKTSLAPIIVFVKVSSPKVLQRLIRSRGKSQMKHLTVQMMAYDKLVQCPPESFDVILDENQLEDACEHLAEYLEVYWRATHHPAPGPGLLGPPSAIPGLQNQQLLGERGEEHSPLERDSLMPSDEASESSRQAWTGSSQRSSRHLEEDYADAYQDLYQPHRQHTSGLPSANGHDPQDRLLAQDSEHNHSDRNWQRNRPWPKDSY
- Sequence (P54289 25-956 partner limits assumed): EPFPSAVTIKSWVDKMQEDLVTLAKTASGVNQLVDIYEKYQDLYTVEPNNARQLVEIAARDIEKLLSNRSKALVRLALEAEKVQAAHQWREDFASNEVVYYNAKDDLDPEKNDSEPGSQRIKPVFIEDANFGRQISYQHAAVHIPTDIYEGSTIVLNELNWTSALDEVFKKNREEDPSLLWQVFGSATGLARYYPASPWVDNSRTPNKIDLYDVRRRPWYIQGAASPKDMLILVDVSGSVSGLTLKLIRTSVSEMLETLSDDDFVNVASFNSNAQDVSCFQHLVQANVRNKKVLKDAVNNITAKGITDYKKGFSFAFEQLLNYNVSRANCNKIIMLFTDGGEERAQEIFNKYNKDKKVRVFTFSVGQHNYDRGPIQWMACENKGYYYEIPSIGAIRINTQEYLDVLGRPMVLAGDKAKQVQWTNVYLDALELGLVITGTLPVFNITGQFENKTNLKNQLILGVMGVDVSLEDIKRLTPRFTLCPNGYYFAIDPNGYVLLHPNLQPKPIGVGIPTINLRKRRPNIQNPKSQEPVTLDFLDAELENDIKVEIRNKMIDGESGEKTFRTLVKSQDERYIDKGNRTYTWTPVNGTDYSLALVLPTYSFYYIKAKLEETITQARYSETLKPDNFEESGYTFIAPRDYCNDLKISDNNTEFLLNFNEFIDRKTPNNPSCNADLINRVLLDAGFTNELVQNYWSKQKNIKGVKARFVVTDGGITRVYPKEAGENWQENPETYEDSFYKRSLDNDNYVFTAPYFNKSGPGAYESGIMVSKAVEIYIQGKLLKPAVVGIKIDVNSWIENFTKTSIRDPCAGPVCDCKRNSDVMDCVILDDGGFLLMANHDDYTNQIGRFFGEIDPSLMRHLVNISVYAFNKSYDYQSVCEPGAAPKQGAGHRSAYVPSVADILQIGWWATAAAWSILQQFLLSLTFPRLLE
- Sequence (P54289 957-1103 partner limits assumed): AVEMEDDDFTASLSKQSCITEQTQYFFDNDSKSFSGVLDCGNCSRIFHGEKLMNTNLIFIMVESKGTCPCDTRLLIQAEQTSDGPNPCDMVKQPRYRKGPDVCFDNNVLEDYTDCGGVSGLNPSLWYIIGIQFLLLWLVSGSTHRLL
- Assay Summary: Electrophysiological response, QPatch (depolarization -80 mV to +20 mV)
- Test Conditions: N Type IC50 Data Qpatch Pulse=15, Pulse=15; concentration range 0.3-10 µM
Property: IC50 (nM)

[
  {
    "Input Smiles": "COc1ncccc1-c1nc(C2CC(C)(C)OC(C)(C)C2)cn1-c1ccc(F)c(Br)c1",
    "System Under Test": "human N-type Ca channel (Homo sapiens, UniProt Q00975)",
    "Reading": 1720
  }
]

P = COc1ccccc1-c1nc(C2(O)CC(C)(C)OC(C)(C)C2)cn1-c1ccc(Cl)cc1
Q = COc1ccc(-n2cc(C3CC(C)(C)OC(C)(C)C3)nc2-c2ccccc2OC)cc1
Request: Given P and Q , report the one with the higher recorded IC50. Give the chosen item's label as your response.
Result: P
(P: 1740 nM, Q: 680 nM)
